Entry source: ChEMBL document CHEMBL3425495

# assay_explanation: Antiproliferative activity against human H460 cells after 3 days by MTT assay
# Format: functional, cell-based
# assay_conditions: NCI-H460, 72 h
measure_name: IC50 (µM)
Hi! Could you send only the number? It should be in µM, unit omitted.

Item under review: CC(C)COc1cc(C(=O)O)ccc1NC(=O)c1ccc([N+](=O)[O-])c(OCc2cccc3ccccc23)c1 . Reported IC50? 15.9

====

# measured_on: c-Myc/Max (Homo sapiens, UniProt P01106+P61244)
# Sequence (P01106 whole entry): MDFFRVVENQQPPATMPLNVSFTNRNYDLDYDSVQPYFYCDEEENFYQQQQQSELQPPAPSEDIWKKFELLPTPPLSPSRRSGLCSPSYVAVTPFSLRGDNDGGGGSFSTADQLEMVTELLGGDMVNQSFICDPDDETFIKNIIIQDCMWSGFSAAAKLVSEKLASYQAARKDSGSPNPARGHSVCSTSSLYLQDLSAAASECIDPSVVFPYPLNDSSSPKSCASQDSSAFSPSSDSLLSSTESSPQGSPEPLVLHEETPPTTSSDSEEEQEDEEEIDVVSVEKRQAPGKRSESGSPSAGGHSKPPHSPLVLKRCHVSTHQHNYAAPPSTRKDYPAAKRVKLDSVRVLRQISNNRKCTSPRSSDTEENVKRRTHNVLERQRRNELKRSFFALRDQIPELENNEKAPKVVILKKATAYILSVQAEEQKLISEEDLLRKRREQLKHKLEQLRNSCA
# Sequence (P61244 whole entry): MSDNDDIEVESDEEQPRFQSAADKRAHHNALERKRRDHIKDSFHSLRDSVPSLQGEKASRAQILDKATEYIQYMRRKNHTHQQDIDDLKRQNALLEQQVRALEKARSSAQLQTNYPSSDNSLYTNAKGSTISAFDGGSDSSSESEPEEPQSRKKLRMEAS
# assay_explanation: Disruption of human recombinant c-Myc-Max/DNA (unknown origin) binding assessed as complex level by electrophoretic mobility shift assay relative to control
# Assay type: protein-complex assay
Threshold 20 µM. IC50 below it: TRUE. IC50 at it or above: FALSE.

CCOC(=O)C(=O)Nc1ccc(C(=O)Nc2ccc(C(=O)O)cc2OCC(C)C)cc1OCC(C)C TRUE

Okay, now this molecule:
IC50 under 20 µM? Item: CC(C)COc1cc(C(=O)O)ccc1NC(=O)c1ccc([N+](=O)[O-])c(OCc2ccccc2)c1 FALSE
